Reported Emax values follow for various molecules
Molecular target: PKR(wt) (Homo sapiens, UniProt P30613)
Sequence (P30613 whole entry): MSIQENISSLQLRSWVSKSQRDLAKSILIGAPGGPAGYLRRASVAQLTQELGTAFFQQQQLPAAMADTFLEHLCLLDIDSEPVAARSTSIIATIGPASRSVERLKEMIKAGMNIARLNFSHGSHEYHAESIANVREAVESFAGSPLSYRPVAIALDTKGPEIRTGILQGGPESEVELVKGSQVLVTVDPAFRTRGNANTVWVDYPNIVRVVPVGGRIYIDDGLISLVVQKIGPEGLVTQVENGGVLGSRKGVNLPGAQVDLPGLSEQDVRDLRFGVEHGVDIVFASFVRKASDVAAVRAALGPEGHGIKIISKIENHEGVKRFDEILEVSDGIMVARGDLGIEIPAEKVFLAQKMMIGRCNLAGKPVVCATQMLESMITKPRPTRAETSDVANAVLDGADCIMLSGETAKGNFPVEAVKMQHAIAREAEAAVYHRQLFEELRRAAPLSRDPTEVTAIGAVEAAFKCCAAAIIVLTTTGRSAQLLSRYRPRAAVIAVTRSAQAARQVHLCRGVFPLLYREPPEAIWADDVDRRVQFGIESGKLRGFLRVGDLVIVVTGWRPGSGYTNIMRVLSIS
Assay: Luminescence Assay Protocol (Kinase Glo Plus), PKR(Wt/without FBP)
Type: biochemical
Details: without FBP, highest % fold increase at any concentration, read-out: H - AC50 LUM KGP woFBP MAX % FOLD mean
Protocol: Example 47: PKR(Wt/without FBP), PKR(G332S/with FBP), PKR(R510Q/without FBP) The phosphorylation of Adenosine-5′-diphosphate (ADP) by various mutants of PKR was determined by the Kinase Glo Plus Assay (Promega) in the presence or absence of FBP [D-Fructose-1,6-diphosphate; BOC Sciences, CAS: 81028-91-3] as follows. […] Enzyme and PEP [Phospho(enol) pyruvic acid] were added at 2× to all wells of an assay-ready plate containing serial dilutions of test compounds or DMSO vehicle. […]

O=C([C@H](CO)c1ccccc1)N1CC2=C(C1)CN(S(=O)(=O)c1cccnc1)C2    250 to 500%
O=C([C@@H](CO)c1ccccc1)N1CC2=C(C1)CN(S(=O)(=O)c1ccc3ncsc3c1)C2    250 to 500%
CC(C)(CO)C(=O)N1CC2=C(C1)CN(S(=O)(=O)c1ccc(OC(F)F)cc1)C2    75 to 250%
O=C(C(CO)c1ccccn1)N1CC2=C(C1)CN(S(=O)(=O)c1cnc3c(c1)OCCO3)C2 (single isomer, unassigned)    75 to 250%
O=C([C@@H](CO)c1ccccc1)N1CC2=C(C1)CN(S(=O)(=O)c1cnc3c(c1)OCCO3)C2 (single isomer, unassigned)    75 to 250%

Log: PKR(wt) (Homo sapiens, UniProt P30613), molecule O=C(C(CO)c1ccccc1)N1CC2=C(C1)CN(S(=O)(=O)c1ccc3occc3c1)C2 (stereo not shown) , Emax = 250 to 500%

Log: PKR(wt) (Homo sapiens, UniProt P30613), molecule O=C([C@@H]1CCOC1)N1CC2=C(C1)CN(S(=O)(=O)c1ccc(OC(F)F)cc1)C2 , Emax = 250 to 500%

====

biological target: PKR(R510Q) (Homo sapiens, UniProt P30613, R510Q); assay: Luminescence Assay Protocol (Kinase Glo Plus), PKR(R510Q/without FBP); type: biochemical; conditions: PKRR510Q, without FBP, gmean; read-out: D - AC50 LUM KGP woFBP AC50 μM gmean
Sequence (P30613 whole entry R510Q): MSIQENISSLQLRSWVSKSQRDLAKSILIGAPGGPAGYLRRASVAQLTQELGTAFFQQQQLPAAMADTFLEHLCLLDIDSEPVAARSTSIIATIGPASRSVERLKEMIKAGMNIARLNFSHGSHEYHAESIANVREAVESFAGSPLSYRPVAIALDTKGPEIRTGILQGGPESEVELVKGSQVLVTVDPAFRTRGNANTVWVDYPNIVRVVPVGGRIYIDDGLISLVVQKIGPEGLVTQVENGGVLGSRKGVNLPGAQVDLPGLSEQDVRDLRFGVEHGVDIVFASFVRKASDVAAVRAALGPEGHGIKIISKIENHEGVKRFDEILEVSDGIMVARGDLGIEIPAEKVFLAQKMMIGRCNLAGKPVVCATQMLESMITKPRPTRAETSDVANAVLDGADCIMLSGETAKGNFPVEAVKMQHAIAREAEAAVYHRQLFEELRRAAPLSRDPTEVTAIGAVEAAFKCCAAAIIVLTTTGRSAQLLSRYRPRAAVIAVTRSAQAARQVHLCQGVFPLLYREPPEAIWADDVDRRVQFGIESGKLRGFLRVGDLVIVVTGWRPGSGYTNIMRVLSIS
Reported AC50 values follow for various compounds

Example results:
O=C(C1CCCOC1)N1CC2=C(C1)CN(S(=O)(=O)c1ccccn1)C2 (single isomer, unassigned) [Example 45]    1 to 40 µM
CN1CCOc2ccc(S(=O)(=O)N3CC4=C(CN(C(=O)C5CCOC5)C4)C3)cc21 (centres unmarked)    1 to 40 µM
O=C(C(CO)c1ccccn1)N1CC2=C(C1)CN(S(=O)(=O)c1ccc(OC(F)F)cc1)C2 (single isomer, unassigned)    ≤ 0.1 µM
O=C(C1CCOC1)N1CC2=C(C1)CN(S(=O)(=O)c1ccc3c(c1)NCCO3)C2 (centres unmarked)    0.1 to 1 µM
CC(C)(CO)C(=O)N1CC2=C(C1)CN(S(=O)(=O)c1ccc3c(c1)NCCO3)C2    ≤ 0.1 µM
CC(C)(CO)C(=O)N1CC2=C(C1)CN(S(=O)(=O)c1ccc(OC(F)F)cc1)C2    0.1 to 1 µM
O=C(C1CCCOC1)N1CC2=C(C1)CN(S(=O)(=O)c1ccccn1)C2 (single isomer, unassigned) [Example 44]    > 40 µM
O=C([C@@H]1CCOC1)N1CC2=C(C1)CN(S(=O)(=O)c1ccc3ncsc3c1)C2    1 to 40 µM
O=C(C(CO)c1ccccn1)N1CC2=C(C1)CN(S(=O)(=O)c1cnc3c(c1)OCCO3)C2 (single isomer, unassigned) [Example 4]    1 to 40 µM
O=C(C1CCCOC1)N1CC2=C(C1)CN(S(=O)(=O)c1ccc3ncsc3c1)C2 (centres unmarked)    1 to 40 µM

The record that follows has no AC50 shown yet.
Lab note: measured AC50 of O=C(C(CO)c1ccccc1)N1CC2=C(C1)CN(S(=O)(=O)c1ccc3ncsc3c1)C2 (centres unmarked) was ≤ 0.1 µM

====

Reported Emax values follow for various molecules
target: PKR(R510Q) (Homo sapiens, UniProt P30613, R510Q); assay: Luminescence Assay Protocol (Kinase Glo Plus), PKR(R510Q/without FBP); assay type: biochemical; details: PKRR510Q, without FBP, highest % fold increase at any concentration; read-out: E - AC50 LUM KGP woFBP MAX % FOLD mean

O=C([C@@H](CO)c1ccccc1)N1CC2=C(C1)CN(S(=O)(=O)c1ccc3ncsc3c1)C2 [Example 30]    250 to 500%
O=C([C@H](CO)c1ccccc1)N1CC2=C(C1)CN(S(=O)(=O)c1ccc(OC(F)F)cc1)C2 [Example 31]    250 to 500%
C[C@@H](O)[C@H](C(=O)N1CC2=C(C1)CN(S(=O)(=O)c1ccc(OC(F)F)cc1)C2)c1ccccc1 (racemic) [Example 27]    250 to 500%
O=C(C(CO)c1ccccc1)N1CC2=C(C1)CN(S(=O)(=O)c1ccc3c(c1)OCCO3)C2 (stereo not drawn) [Example 18]    75 to 250%
O=C([C@@H]1CCOC1)N1CC2=C(C1)CN(S(=O)(=O)c1ccc(OC(F)F)cc1)C2 [Example 14]    250 to 500%
COCCC(=O)N1CC2=C(C1)CN(S(=O)(=O)c1ccc3c(c1)N(C)CCO3)C2 [Example 53]    75 to 250%
O=C(C(CO)c1ccccc1)N1CC2=C(C1)CN(S(=O)(=O)c1ccc3ncsc3c1)C2 (stereo not drawn) [Example 48]    250 to 500%
CC(C)(CO)C(=O)N1CC2=C(C1)CN(S(=O)(=O)c1ccc3c(c1)NCCO3)C2 [Example 37]    250 to 500%
O=C([C@@H]1CCOC1)N1CC2=C(C1)CN(S(=O)(=O)c1ccc3ncsc3c1)C2 [Example 20]    250 to 500%
O=C([C@H](CO)c1ccccc1)N1CC2=C(C1)CN(S(=O)(=O)c1ccc(C(F)(F)F)nc1)C2 [Example 52]    250 to 500%

Lab note: measured Emax of O=C(C1CCCOC1)N1CC2=C(C1)CN(S(=O)(=O)c1ccc3ncsc3c1)C2 (stereo not drawn) [Example 15] was 250 to 500%

====

Reported AC50 values follow for various compounds
molecular target: UniProt P30613; experiment: Luminescence Assay Protocol (Kinase Glo Plus), PKR(Wt/without FBP); format: biochemical; settings: without FBP, gmean, read-out: G - AC50 LUM KGP woFBP AC50 μM gmean

O=C(C(CO)c1ccccn1)N1CC2=C(C1)CN(S(=O)(=O)c1cnc3c(c1)OCCO3)C2 (single isomer, unassigned) [Example 4]    1 to 40 µM
O=C([C@H](CO)c1ccccc1)N1CC2=C(C1)CN(S(=O)(=O)c1ccc(C(F)(F)F)nc1)C2    0.1 to 1 µM
O=C([C@@H](CO)c1ccccc1)N1CC2=C(C1)CN(S(=O)(=O)c1ccc3ncsc3c1)C2    0.1 to 1 µM
O=C(CCO)N1CC2=C(C1)CN(S(=O)(=O)c1ccc3occc3c1)C2    0.1 to 1 µM
O=C([C@@H]1CCOC1)N1CC2=C(C1)CN(S(=O)(=O)c1ccc(OC(F)F)cc1)C2    0.1 to 1 µM

Lab note: measured AC50 of O=C([C@H](CO)c1ccccc1)N1CC2=C(C1)CN(S(=O)(=O)c1ccc3c(c1)NCCO3)C2 was ≤ 0.1 µM

Lab note: measured AC50 of C[C@@H](O)[C@H](C(=O)N1CC2=C(C1)CN(S(=O)(=O)c1ccc(OC(F)F)cc1)C2)c1ccccc1 (racemic) was ≤ 0.1 µM

====

target: PKR(wt) (Homo sapiens, UniProt P30613); assay: Luminescence Assay Protocol (Kinase Glo Plus), PKR(Wt/without FBP); assay type: biochemical; settings: without FBP, highest % fold increase at any concentration, read-out: H - AC50 LUM KGP woFBP MAX % FOLD mean
assay metric: Emax

CC1(C)CNc2cc(S(=O)(=O)N3CC4=C(CN(C(=O)[C@H](CO)c5ccccc5)C4)C3)ccc2O1    75 to 250%
CC(CO)(CO)C(=O)N1CC2=C(C1)CN(S(=O)(=O)c1ccc3occc3c1)C2    250 to 500%
O=C([C@@H]1CCOC1)N1CC2=C(C1)CN(S(=O)(=O)c1ccc3ncsc3c1)C2    250 to 500%
O=C([C@H]1CCOC1)N1CC2=C(C1)CN(S(=O)(=O)c1ccc(OC(F)F)cc1)C2    250 to 500%
O=C(C(CO)c1ccccc1)N1CC2=C(C1)CN(S(=O)(=O)c1ccc(OC(F)F)cc1)C2 (centres unmarked)    250 to 500%
Cc1nc2ccc(S(=O)(=O)N3CC4=C(CN(C(=O)C(C)(C)CO)C4)C3)cc2o1    75 to 250%
O=C(C1CCOC1)N1CC2=C(C1)CN(S(=O)(=O)c1ccc3c(c1)NCCO3)C2 (centres unmarked)    250 to 500%

The record that follows has no Emax shown yet.
Lab note: measured Emax of COCCC(=O)N1CC2=C(C1)CN(S(=O)(=O)c1ccc3c(c1)N(C)CCO3)C2 was 75 to 250%
